# target or test system: CDK2 (Homo sapiens, UniProt P24941)
# Construct: made in house
# protocol description: Liability panel screening by DSF: CDK2
# Type: binding
# study conditions: read-out: Mean ΔTM CDK2
Could you mark each record Condition met if its ΔTm at 20 µM falls strictly under -0.06 °C, and Condition not met if it equals or exceeds it?

molecule	target or test system	category
O=S(=O)(Cc1ccccc1)Nc1ccc(-c2ccc3c(cnn3-c3ccc(F)cc3)c2)c(C(F)(F)F)c1 [GSK9027]	CDK2 (Homo sapiens, UniProt P24941)	Condition not met
CC[C@@H]1Cc2cc(O)ccc2C2=C1c1ccc(O)cc1C[C@H]2CC [(R,R)-THC]	CDK2 (Homo sapiens, UniProt P24941)	Condition not met
CCCc1c(-c2ccc(O)cc2)nn(-c2ccc(O)cc2)c1-c1ccc(O)cc1 [Propylpyrazoletriol]	CDK2 (Homo sapiens, UniProt P24941)	Condition met
CC(=O)Nc1ccc(OC[C@](C)(O)C(=O)Nc2ccc([N+](=O)[O-])c(C(F)(F)F)c2)cc1 [Andarine]	CDK2 (Homo sapiens, UniProt P24941)	Condition not met

* * *

# target or test system: CSNK1D (Homo sapiens, UniProt P48730)
# Construct: made in house
# Sequence (P48730 whole entry, species assumed): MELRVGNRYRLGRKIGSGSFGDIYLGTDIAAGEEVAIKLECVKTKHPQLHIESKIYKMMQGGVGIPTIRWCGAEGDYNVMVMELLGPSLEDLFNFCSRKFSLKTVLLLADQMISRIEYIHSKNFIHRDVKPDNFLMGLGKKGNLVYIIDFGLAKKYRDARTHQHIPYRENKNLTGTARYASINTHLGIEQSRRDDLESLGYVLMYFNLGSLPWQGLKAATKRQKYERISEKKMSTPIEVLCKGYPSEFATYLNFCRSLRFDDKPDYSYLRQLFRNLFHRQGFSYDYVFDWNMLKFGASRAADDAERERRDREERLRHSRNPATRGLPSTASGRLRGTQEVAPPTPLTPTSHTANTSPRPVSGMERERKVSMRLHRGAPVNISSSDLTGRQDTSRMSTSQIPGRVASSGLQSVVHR
# protocol description: Liability panel screening by DSF: CSNK1D
# Type: binding
# study conditions: DSF, 20 µM, n=2; read-out: Mean ΔTM CSNK1D
value type: ΔTm at 20 µM

molecule	value type	assay value
Oc1ccc(-c2c(-c3ccccc3)nn3c(C(F)(F)F)cc(C(F)(F)F)nc23)cc1 [PHTPP]	ΔTm at 20 µM	0.39 °C
CC#C[C@]1(O)CC[C@H]2[C@@H]3CCC4=CC(=O)CCC4=C3[C@@H](c3ccc(N(C)C)cc3)C[C@@]21C [Mifepristone]	ΔTm at 20 µM	0.0217 °C
CC(C)c1ccc(/C=N/NC(=O)c2ccc(O)cc2)cc1 [GSK4716]	ΔTm at 20 µM	-0.73 °C
CCC(=O)O[C@]1(C(=O)SCF)[C@H](C)C[C@H]2[C@@H]3C[C@H](F)C4=CC(=O)C=C[C@]4(C)[C@@]3(F)[C@@H](O)C[C@@]21C [Fluticasone propionate]	ΔTm at 20 µM	-0.0152 °C
Cc1c(N2C(=O)C3C(O)CCN3C2=O)ccc(C#N)c1Cl (stereo not drawn) [BMS564929]	ΔTm at 20 µM	-0.38 °C
CCN(CC)c1ccc(/C=N/NC(=O)c2ccc(O)cc2)cc1 [DY131]	ΔTm at 20 µM	-0.0354 °C
CC/C(=C(\c1ccc(O)cc1)c1ccc(OCCN(C)C)cc1)c1ccccc1 [(Z)-4-Hydroxytamoxifen]	ΔTm at 20 µM	0.12 °C
C[C@@H]1Cc2c([nH]c3ccccc23)[C@@H](c2c(F)cc(/C=C/C(=O)O)cc2F)N1CC(C)(C)F [AZD9496]	ΔTm at 20 µM	0.64 °C
CC(=O)O[C@]1(C(C)=O)CC[C@H]2[C@@H]3C=C(Cl)C4=CC(=O)[C@@H]5C[C@@H]5[C@]4(C)[C@H]3CC[C@@]21C [Cyproterone acetate]	ΔTm at 20 µM	0.16 °C
CC(=O)O[C@]1(C(C)=O)CC[C@H]2[C@@H]3CCC4=CC(=O)CCC4=C3[C@@H](c3ccc(N(C)C)cc3)C[C@@]21C [Ulipristal acetate]	ΔTm at 20 µM	0.22 °C
N#Cc1ccc([C@H]2CCCC[C@H]2O)cc1C(F)(F)F [PF-998425]	ΔTm at 20 µM	0.3 °C
COC(=O)[C@@H]1CC2=CC(=O)CC[C@]2(C)[C@@]23O[C@@H]2C[C@@]2(C)[C@@H](CC[C@@]24CCC(=O)O4)[C@H]13 [Eplerenone]	ΔTm at 20 µM	0.47 °C
CC(=O)OCC(=O)[C@@]1(O)CC[C@H]2[C@@H]3CCC4=CC(=O)CC[C@]4(C)[C@@]3(F)[C@@H](O)C[C@@]21C [Fludrocortisone acetate]	ΔTm at 20 µM	-0.08 °C
COc1cc(/C=C(\C#N)C(=O)Nc2nnc(C(F)(F)F)s2)ccc1OCc1ccc(C(F)(F)F)cc1C(F)(F)F [XCT790]	ΔTm at 20 µM	0.0531 °C
C[C@]12CCC(=O)C=C1CC[C@@H]1[C@@H]2[C@@H](O)C[C@]2(C=O)[C@@H](C(=O)CO)CC[C@@H]12 [Aldosterone]	ΔTm at 20 µM	-2.48e-05 °C
